system name: full-length P. pyralis luciferase (Photinus pyralis, UniProt P08659, K549A/L550V/N119G/N50D/S548I)
Sequence (P08659 whole entry N50D/N119G/S548I/K549A/L550V, looked up): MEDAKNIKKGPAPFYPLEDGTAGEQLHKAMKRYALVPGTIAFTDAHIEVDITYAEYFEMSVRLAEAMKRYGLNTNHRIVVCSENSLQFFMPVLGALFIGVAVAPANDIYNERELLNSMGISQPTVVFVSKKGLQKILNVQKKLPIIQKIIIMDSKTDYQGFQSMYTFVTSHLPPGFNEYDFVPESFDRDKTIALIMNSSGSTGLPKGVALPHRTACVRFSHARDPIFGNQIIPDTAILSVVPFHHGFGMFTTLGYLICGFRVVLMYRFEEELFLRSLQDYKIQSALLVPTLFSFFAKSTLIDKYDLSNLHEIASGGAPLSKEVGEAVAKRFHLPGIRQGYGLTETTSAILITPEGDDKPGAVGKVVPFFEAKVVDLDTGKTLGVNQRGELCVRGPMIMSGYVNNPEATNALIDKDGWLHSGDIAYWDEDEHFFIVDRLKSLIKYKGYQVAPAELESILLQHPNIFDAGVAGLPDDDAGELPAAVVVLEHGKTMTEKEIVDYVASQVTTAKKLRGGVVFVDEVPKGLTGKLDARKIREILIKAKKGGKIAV
Type: cell-based
condition description: CC_NCI screening; full-length luciferase counter-screen; normalized to on-plate 0.3% DMSO controls
reported property: Luciferase Assay Z-score

Nc1nc2nc[nH]c2c(=S)[nH]1 [Thioguanine]	-0.90
CCc1cc(Nc2nccc(-c3c(-c4ccc(OC)c(C(=O)Nc5c(F)cccc5F)c4)nc4ccccn34)n2)c(OC)cc1N1CCC(N2CCN(S(C)(=O)=O)CC2)CC1 [GSK1904529A]	-1.67
N#C/C(=C/c1ccc(O)c(O)c1)C(=O)NCc1ccccc1 [AG 490]	-1.84
COc1ccc2c(c1)CC[C@@H]1[C@@H]2CC[C@]2(C)[C@@H](NCCCCCCN3C(=O)C=CC3=O)CC[C@@H]12 [U 73122]	1.28
C[C@]12CC[C@H](O)CC1=CC[C@@H]1[C@@H]2CC[C@]2(C)C(c3cccnc3)=CC[C@@H]12 [Abiraterone]	-1.90
O=C(CCCCCCC(=O)Nc1ccccc1)NO [Vorinostat]	-0.26
CO[C@H]1C[C@@H]2CC[C@@H](C)[C@@](O)(O2)C(=O)C(=O)N2CCCC[C@H]2C(=O)O[C@H]([C@H](C)C[C@@H]2CC[C@@H](OC(=O)C(C)(CO)CO)[C@H](OC)C2)CC(=O)[C@H](C)/C=C(\C)[C@@H](O)[C@@H](OC)C(=O)[C@H](C)C[C@H](C)/C=C/C=C/C=C/1C [Temsirolimus]	-4.02
CO[C@H]1C[C@@H]2CC[C@@H](C)[C@@](O)(O2)C(=O)C(=O)N2CCCC[C@H]2C(=O)O[C@H]([C@H](C)C[C@@H]2CC[C@@H](OC(=O)C(C)(CO)CO)[C@H](OC)C2)CC(=O)[C@H](C)/C=C(\C)[C@@H](O)[C@@H](OC)C(=O)[C@H](C)C[C@H](C)/C=C/C=C/C=C/1C [TEMSIROLIMUS]	-4.39
Cn1nnc2c(C(N)=O)ncn2c1=O [Temozolomide]	-0.09
N.N.[Cl][Pt][Cl] [Cisplatin]	-0.08
CO[C@H]1C[C@@H]2CC[C@@H](C)[C@@](O)(O2)C(=O)C(=O)N2CCCC[C@H]2C(=O)O[C@H]([C@H](C)C[C@@H]2CC[C@@H](O)[C@H](OC)C2)CC(=O)[C@H](C)/C=C(\C)[C@@H](O)[C@@H](OC)C(=O)[C@H](C)C[C@H](C)/C=C/C=C/C=C/1C [RAPAMYCIN]	-2.93
CNCc1ccc(-c2[nH]c3cc(F)cc4c3c2CCNC4=O)cc1 [AG014699]	-2.24
O=[As]O[As]=O (stereo not drawn) [Arsenic trioxide]	-0.40
CNC(=O)c1cc(Oc2ccc(NC(=O)Nc3ccc(Cl)c(C(F)(F)F)c3)c(F)c2)ccn1 [Regorafenib]	-2.09
COc1cc2c(Nc3ccc(Br)cc3F)ncnc2cc1OCC1CCN(C)CC1 [Vandetanib]	-2.46

Cited source for all entries: paper PMC6858373
